Where do the numbers come from? From paper PMC6218581.

target: StuSK441A/OtaL hybrid heterotetramer (Solanum tuberosum; Ostreococcus tauri, UniProt A0A096P9X2+P23509, A0A096P9X2:L24M/P23509:K511A); construct: hybrid heterotetramer: potato tuber small subunit K441A co-expressed with O. tauri large subunit in E. coli AC70R1-504; purified; test: ADP-[…]Glc formation, activation curve, Hill fit; settings: read-out: A0.5; allosteric activator; 50 mM HEPPS pH 8.0, 10 mM MgCl2, 1 mM Glc1P, 2.5 mM ATP, 2 mM DTT, 37°C, no Pi
Sequence (A0A096P9X2 entry or part of it L24M): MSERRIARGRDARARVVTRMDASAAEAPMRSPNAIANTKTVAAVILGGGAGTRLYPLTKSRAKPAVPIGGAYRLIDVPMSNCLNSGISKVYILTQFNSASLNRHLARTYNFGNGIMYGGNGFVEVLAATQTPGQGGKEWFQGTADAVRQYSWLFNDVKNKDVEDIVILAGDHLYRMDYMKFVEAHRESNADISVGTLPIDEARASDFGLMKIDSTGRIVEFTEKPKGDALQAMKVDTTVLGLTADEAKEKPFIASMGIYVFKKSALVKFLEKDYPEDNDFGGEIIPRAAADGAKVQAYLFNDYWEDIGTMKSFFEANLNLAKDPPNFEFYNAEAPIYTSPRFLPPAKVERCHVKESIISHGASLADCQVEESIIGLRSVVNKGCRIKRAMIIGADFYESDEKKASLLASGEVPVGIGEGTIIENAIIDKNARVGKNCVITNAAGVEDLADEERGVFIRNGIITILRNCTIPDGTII
Sequence (P23509 73-521 K511A): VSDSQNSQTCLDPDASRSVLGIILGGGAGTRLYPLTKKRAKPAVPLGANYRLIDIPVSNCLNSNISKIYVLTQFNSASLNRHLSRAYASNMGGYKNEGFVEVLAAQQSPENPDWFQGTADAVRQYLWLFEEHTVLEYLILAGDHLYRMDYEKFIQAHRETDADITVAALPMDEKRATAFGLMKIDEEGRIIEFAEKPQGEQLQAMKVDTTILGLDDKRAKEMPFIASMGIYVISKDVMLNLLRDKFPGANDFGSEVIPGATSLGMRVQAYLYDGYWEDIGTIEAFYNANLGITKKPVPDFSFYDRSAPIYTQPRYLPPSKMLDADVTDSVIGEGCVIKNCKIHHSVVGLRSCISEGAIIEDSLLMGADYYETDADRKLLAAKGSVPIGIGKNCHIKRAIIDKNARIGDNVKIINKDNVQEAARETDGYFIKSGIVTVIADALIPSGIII
endpoint.label: pEC50
In plain terms, pEC50 is the concentration in mol/L turned into minus its base-10 logarithm.

Memo: O=C(O)[C@H](O)COP(=O)(O)O [3PGA] , reported pEC50: 2.92

====

molecular target: OtaS/OtaL ADP-Glc PPase (Ostreococcus tauri, UniProt A0A090M9E5+A0A096P9X2, A0A096P9X2:L24M); assay: ADP-[…]Glc formation, activation curve, Hill fit; conditions: allosteric activator; 50 mM HEPPS pH 8.0, 10 mM MgCl2, 1 mM Glc1P, 2.5 mM ATP, 37°C, no Pi; read-out: A0.5
Sequence (A0A090M9E5 entry or part of it, one chain of several): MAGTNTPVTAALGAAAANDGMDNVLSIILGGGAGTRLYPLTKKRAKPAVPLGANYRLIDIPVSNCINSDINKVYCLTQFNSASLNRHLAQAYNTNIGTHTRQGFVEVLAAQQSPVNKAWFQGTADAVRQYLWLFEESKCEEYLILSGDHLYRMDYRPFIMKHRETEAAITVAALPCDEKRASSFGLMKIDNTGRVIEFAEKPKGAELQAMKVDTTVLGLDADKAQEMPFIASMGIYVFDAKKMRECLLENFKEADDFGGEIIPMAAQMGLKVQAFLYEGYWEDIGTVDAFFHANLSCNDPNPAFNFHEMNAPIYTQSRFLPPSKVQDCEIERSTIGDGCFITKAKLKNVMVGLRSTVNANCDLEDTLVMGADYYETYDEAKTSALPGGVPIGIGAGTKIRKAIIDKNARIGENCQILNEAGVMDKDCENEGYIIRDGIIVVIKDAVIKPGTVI
endpoint.label: EC50 (µM)
Lab book: enter the figure in µM, no units written.

Memo: O=C(O)[C@H](O)COP(=O)(O)O , reported EC50: 610

====

target: OtaS/OtaL ADP-Glc PPase (Ostreococcus tauri, UniProt A0A090M9E5+A0A096P9X2, A0A096P9X2:R476K, form not given); construct: heterotetramer alpha2beta2, co-expressed from pMAB5/OtaS and pMAB6/OtaL in E. coli AC70R1-504; DEAE and Resource PHE purification, no tag mentioned; assay: ADP-[…]Glc formation, activation curve, Hill fit; settings: allosteric activator; 50 mM HEPPS pH 8.0, 10 mM MgCl2, 1 mM Glc1P, 2.5 mM ATP, 37°C, no Pi; read-out: A0.5
Sequence (A0A096P9X2 entry or part of it R476K, form open): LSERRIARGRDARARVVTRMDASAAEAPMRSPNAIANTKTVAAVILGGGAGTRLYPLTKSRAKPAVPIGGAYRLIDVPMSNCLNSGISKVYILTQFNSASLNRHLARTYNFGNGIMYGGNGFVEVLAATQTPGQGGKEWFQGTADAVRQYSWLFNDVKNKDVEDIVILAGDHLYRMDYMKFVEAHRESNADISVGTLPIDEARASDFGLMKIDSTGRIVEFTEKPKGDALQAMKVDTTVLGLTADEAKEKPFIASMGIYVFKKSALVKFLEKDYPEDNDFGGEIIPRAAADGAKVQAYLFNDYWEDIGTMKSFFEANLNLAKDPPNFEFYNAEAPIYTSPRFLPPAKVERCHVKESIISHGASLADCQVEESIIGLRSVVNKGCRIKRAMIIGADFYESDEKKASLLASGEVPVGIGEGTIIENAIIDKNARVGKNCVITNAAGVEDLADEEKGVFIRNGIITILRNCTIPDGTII
Sequence (A0A090M9E5 entry or part of it, form open): as the sequence (A0A090M9E5 entry or part of it, one chain of several) above
endpoint.label: pEC50
In plain terms, pEC50 is the concentration in mol/L turned into minus its base-10 logarithm.

Memo: O=C(O)[C@H](O)COP(=O)(O)O , reported pEC50: 3.72
